Each item that follows carries a reported inhibition at 5000 µM.
Biological target: rBSH (recombinant bile salt hydrolase) (Ligilactobacillus salivarius)
Construct: His-tagged full-length BSH, E. coli host, Ni-NTA purified
Sequence (J7H3P9 2-324): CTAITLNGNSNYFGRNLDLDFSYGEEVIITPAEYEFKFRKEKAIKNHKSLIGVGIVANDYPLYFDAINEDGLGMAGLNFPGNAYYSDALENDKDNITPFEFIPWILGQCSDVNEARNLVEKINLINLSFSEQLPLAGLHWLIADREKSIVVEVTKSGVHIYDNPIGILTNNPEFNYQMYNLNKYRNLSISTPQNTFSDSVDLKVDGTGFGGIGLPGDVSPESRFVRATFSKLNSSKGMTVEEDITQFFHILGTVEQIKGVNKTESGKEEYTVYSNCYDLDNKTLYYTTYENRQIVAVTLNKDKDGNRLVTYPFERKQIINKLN
Assay: two-step BSH assay, amino acid released from glycocholate
Type: biochemical
Counter-ions that a name gives are not always drawn.

Solved entries (count: 3):
# COMPOUND, inhibition at 5000 µM
records = [
    ("C[C@H]1c2cccc(O)c2C(O)=C2C(=O)[C@]3(O)C(O)=C(C(N)=O)C(=O)[C@@H](N(C)C)[C@@H]3[C@@H](O)[C@@H]21 [Doxycycline Hydrochloride]", "92.9%"),
    ("O=c1c(O)c(-c2ccc(O)c(O)c2)oc2c(O)c(O)cc(O)c12 [Gossypetin]", "97.3%"),
    ("O=C(O[C@@H]1Cc2c(O)cc(O)cc2O[C@@H]1c1ccc(O)c(O)c1)c1cc(O)c(O)c(O)c1 [Epicatechin monogallate]", "98.6%"),
]

For the compound CC1=CC(=O)c2ccccc2C1=O [Menadione] , give its reported inhibition at 5000 µM.
87.2%
